target: human TLR7 (Homo sapiens); construct: host or cells: HEK-Blue cells; assay: TLR7 inhibition reporter assay (HEK-Blue cells, SEAP reporter, gardiquimod stimulation); format: cell-based; settings: HEK-Blue cells overexpressing human TLR7, SEAP reporter, gardiquimod 7.5 μM; read-out: TLR7 IC50
Sequence (Q9NYK1 27-1049): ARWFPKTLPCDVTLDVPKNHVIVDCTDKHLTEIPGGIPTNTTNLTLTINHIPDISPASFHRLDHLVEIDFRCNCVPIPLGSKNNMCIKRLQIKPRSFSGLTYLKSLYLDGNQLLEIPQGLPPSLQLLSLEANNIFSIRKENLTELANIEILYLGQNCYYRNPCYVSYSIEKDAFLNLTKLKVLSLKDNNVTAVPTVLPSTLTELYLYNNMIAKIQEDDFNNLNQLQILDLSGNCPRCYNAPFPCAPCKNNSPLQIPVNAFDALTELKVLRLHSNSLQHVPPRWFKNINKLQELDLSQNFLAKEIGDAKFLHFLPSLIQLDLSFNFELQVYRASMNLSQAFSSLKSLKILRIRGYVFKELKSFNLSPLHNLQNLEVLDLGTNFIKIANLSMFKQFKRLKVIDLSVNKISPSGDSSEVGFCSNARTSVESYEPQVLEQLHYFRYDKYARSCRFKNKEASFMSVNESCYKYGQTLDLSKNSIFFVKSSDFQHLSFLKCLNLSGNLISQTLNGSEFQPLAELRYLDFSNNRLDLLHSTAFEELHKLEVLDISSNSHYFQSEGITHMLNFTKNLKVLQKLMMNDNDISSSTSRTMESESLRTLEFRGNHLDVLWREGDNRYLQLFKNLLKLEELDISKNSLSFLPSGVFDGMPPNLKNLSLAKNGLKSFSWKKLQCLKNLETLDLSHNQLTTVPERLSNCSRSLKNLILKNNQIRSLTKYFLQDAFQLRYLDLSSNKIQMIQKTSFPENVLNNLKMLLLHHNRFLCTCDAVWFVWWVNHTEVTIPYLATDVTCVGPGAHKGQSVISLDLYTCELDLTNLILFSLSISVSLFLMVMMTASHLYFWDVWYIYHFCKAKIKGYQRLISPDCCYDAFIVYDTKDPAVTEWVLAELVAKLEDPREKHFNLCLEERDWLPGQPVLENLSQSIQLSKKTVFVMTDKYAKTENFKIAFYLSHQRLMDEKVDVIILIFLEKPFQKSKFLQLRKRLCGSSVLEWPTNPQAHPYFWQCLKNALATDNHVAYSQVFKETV
Documented pIC50 across a set of compounds
Quick note: pIC50 values are minus log10 of concentrations in mol/L.

Query pIC50 on human TLR7 (Homo sapiens) for COc1cc(-c2[nH]c3sc(C4CCC(N)CC4)nc3c2C(C)C)cn2ncnc12 (single isomer, unassigned) [Example 93]
8.72

What measured pIC50 is associated with COc1cc(-c2[nH]c3sc(C4CCC(N5CCC6(CC5)COC6)CC4)nc3c2C(C)C)cn2ncnc12 (single isomer, unassigned) [Example 112] on human TLR7 (Homo sapiens)?
7.94

Query for human TLR7 (Homo sapiens): what pIC50 does the record show for COc1cc(-c2[nH]c3sc(C4CCC(N5CCC6(CC5)COC6)CC4)nc3c2C(C)C)cn2ncnc12 (single isomer, unassigned) [Example 113] ?
8.96

Quick check: pIC50 on human TLR7 (Homo sapiens), item `Cc1c(-c2[nH]c3sc(N4CC5(C4)CN(C4COC4)C5)nc3c2C(C)C)cn(C)c(=O)c1C` ?
6.83

// lookup pIC50 | system=human TLR7 (Homo sapiens) | key= COc1cc(-c2[nH]c3sc(C4CCC(NCC(C)(C)OC)CC4)nc3c2C(C)C)cn2ncnc12 (single isomer, unassigned) [Example 87]
8.76

Could you share what pIC50 was measured for `CC(C)c1c(-c2cn(C)c3ncccc23)[nH]c2sc(C3CCN(CCS(C)(=O)=O)CC3)nc12` , tested on human TLR7 (Homo sapiens)?
8.41

Query pIC50 on human TLR7 (Homo sapiens) for `CC(C)c1c(-c2cn(C)c3ncccc23)[nH]c2sc(C3CCN(C(C)C)CC3)nc12`
5.89

Form field - read-out: pIC50; system: human TLR7 (Homo sapiens); submitted item: `Cc1cc(-c2[nH]c3sc(C4CCN(C5CCOCC5)CC4)nc3c2C(C)C)cc(C)n1`
6.35

Recall the recorded pIC50 for Cc1c(-c2[nH]c3sc(C4CCC(N5CC(F)C5)CC4)nc3c2C(C)C)cn2ncnc2c1C (single isomer, unassigned) [Example 227] with human TLR7 (Homo sapiens) and state it.
8.35

Identify the measured pIC50 of CC(C)c1c(-c2cn(C)c3ncccc23)[nH]c2sc(C3CCC(NC4COC4)CC3)nc12 (single isomer, unassigned) [Example 178] for human TLR7 (Homo sapiens).
8.77

Give human TLR7 (Homo sapiens) pIC50 for `Cc1c(-c2[nH]c3sc(N4C[C@@H](C)N(C5COC5)C[C@@H]4C)nc3c2C(C)C)cn2ncnc2c1C`
7.89

I'm curious: which pIC50 was measured for `Cc1c(-c2[nH]c3sc(C4CCNCC4)nc3c2C(C)C)cn2ncnc2c1C` tested on human TLR7 (Homo sapiens)?
8.92

The reported measurements were obtained from patent US20230139171A1.
